- TESTED_TARGET: CD3 epsilon/delta heterodimer (Homo sapiens, UniProt P07766;P04234 P07766:23-126,P04234:22-105)
- Sequence (P07766 23-126, stated change not applied, chain 1 of 2): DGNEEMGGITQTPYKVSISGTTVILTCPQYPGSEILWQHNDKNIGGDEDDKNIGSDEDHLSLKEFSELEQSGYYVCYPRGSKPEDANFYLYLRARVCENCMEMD
- Sequence (P04234 22-105, stated change not applied, chain 2 of 2): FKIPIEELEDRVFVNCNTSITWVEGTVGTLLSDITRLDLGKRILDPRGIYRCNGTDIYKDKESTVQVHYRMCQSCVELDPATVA
- ASSAY_METHOD_TEXT: SPR; steady state; kinetic fit suboptimal
- SETUP_CONDITIONS: tags: C-terminal human IgG1 Fc fusion, AcroBiosystems; chain copies: heterodimer 1:1 (inferred); label: 5'-biotin-TEG
Provide the recorded pKd for the entries that follow.
Scale explanation: pKd corresponds to minus log10 of a concentration expressed in moles per litre.

Req: Fill in reported pKd for this entry: CGGCAGGGGTTTGGCTCCGGGTCTGGCGAACTGGCTGAGA (ssDNA) [CELTIC_5s]
Resp: 6.92

Req: Provide one value: measured pKd of AAGGGATTGGCGTCGGGCCTGGCGTAAGGAGGCTATGCTC (ssDNA) [CELTIC_6s]
Resp: 6.77
